Reference source for all entries: the supplement of paper PMC9170038

Test system: K4 kissing-loop RNA reporter;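 further: bound reporter read as fluorescence of individual clusters on recovered sequencing chips by microscopy, with normalized cluster intensities fitted with a binding model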
Assay: apparent KD of K4 kissing-loop reporter; higher = weaker reporter binding
Conditions: Eterna round: R107; input ligand: none
Rule: apparent KD of K4 kissing-loop reporter of 600 nM or more gives Fulfilled; anything lower gives Not fulfilled.

Worked set:
biosequence	class.assignment
AAUAAUAUACAAAGGCGAACGAAUAGGGAAGGAGCGCGAUAUAACGCAGGUAGGUCGCCCAUAUUUUUAGUGAUGUUAGAGAAUA [E. Arginine A Tesla 1]	Fulfilled
UGUUUUUACUGAAGGAGCGGCAAUUGAUACGUAGAUAUAGUGAUGUUAUAUAAGAUAGAGAGCCAGGUAGGUCGCAGAAUGUAUC [ExArgB.aC]	Not fulfilled
AGAUUCGACACGGCCGCCACUUCCAGUGGCUGGUGUCAUGGUGCGCGUGAGUGAUGUUUAUGUGGAAGGACCGGGUGUUGAGUCU [KL-XTryp-B1 #analogue]	Fulfilled
AAGUCAUAUAGAAGGAGCGUGUUUUUUAAUUUAUUUUCAUGAUCGAGUGAUGUUCGAUAUACACAGGUAGGUCGCUGUAUAAUAA [hbob_SS_Arginine_B_2t141]	Not fulfilled

Switching to the query record.
Does apparent KD of K4 kissing-loop reporter meet or surpass 600 nM for GGGAGUAGUGCGGCCGCCACUGAGAAAGAAGAAGAAUAUAGUGAUGUUAUAUAGGAAAGGAAGAAUAGGACCGGGCAUUAGAUUU [SSTRyptB.J] ?
Not fulfilled

* * *

Tested on: MS2 coat protein
Assay: apparent KD of MS2 coat protein; designed switch direction (-1 OFF switch, 1 ON switch): 1; higher = weaker reporter binding
Settings: input ligand: microRNA oligo, concentration not stated
Could you please report measured apparent KD of MS2 coat protein for the items listed next?
One number for each entry, in nM.

# batch: return apparent KD of MS2 coat protein for each of the 3 sequences below
1. CCCUCAUGCAGGCUAACACGCUUGUUUUAACAUGAGGAUCACCCAUGUACGUCGCCGUUUCGUGCGGGACGCGCAGA [Anuscear] (Eterna round: R96, puzzle: Sensor for hsa-mir-208a)
2. AGUAUACAUGAGGAUCACCCAUGUCAGUAACUGACAGGAUAUGCGUUGCAUCACUGUAAUGCAGAAGGGUCUUGUA [Same State 1 - Mod of JMF's solution 1] (Eterna round: R96, puzzle: Same State 1)
3. AGAUGUUAAUUAGGAUAUGGUCACAUGAGGAUCACCCAUGUAACGAAGAUACGAUGUGGUCAAGACUAGAAGGGAUCGCUAACA [SameState NG2 #73] (Eterna round: R96, puzzle: Same State NG 2)

1: 229; 2: 324; 3: 47.4

* * *

Could you please report measured apparent KD of MS2 coat protein for the items listed next?
System: MS2 coat protein
Experiment: apparent KD of MS2 coat protein; designed switch direction (-1 OFF switch, 1 ON switch): -1; higher = weaker reporter binding
Settings: input ligand: FMN 200 uM
Answers are plain numbers, in nM.

Solved cases (5 shown):
biosequence	experimental.value
GGUACUCAAAGAGUACCAAUACGAACAUGAGGAUCACCCAUGUAGGAUAUGCUACUCAAAGAGUAGCAGAAGGAUAUGAUGGAU [Far Half Aptamer v15] (Eterna round: R96, puzzle: Exclusion NG 3)	60.2
ACAUGUUGCGCAGGAUAUGGGACACAUGAGGAUCACCCAUGUGGUUUCAUGUCUAACCAAGCGUCCCAGAAGGGCGUGAACAUG [Ex NG2 #30] (Eterna round: R96, puzzle: Exclusion NG 2)	41.8
AGCUGUGGCCGAGGAUAUCACGAACCAUGGAAAACCAUGGAACUCACACAUGAGGAUCACCCAUGUGAGAAGGCGGUCUCAGCA [Eli eng2 - 021] (Eterna round: R96, puzzle: Exclusion NG 2)	16.3
UCUUUAGGUGUUAGGAUAUACCUGCGCAAAGUUAGGUAGAAGGGACAUGAGGAUCACCCAUGUGCGUCCACAAU [Eternabot (L1) Solution 29] (Eterna round: R97, puzzle: Brourd's mod of Exclusion 4)	30.4
AGUGUCAAGCAAGCAAGGAACAUGAGGAUCACCCAUGUCGUACAAUAAACGCCCGCUCGUCGCACGUCGUGCGUAGA [Eternabot (Original) Solution 18] (Eterna round: R97, puzzle: Sensor, turn-off variant 1)	34.3

# batch: return apparent KD of MS2 coat protein for each of the 2 sequences below
1. CCAACAAGCUUUUUGCUCGACAUGAGGAUCACCCAUGUAAAAUGGGUAAAUUUAAAUUUAAAUUUAUUUAAAUUUGG [-16.3, -42.5 kcal, A 35%] (Eterna round: R97, puzzle: Sensor, turn-off variant 1)
2. CUUGUUUAUGUAGGAUAUGCCUGGCGUGCCUUUGCAGAAGGACAUGAGGAUCACCCAUGUAACAUGAGGCUCACCCAUGUCGCU [salish99_ExNG1_r04_106] (Eterna round: R96, puzzle: Exclusion NG 1)

[505, 434]

# batch: return apparent KD of MS2 coat protein for each of the 2 sequences below
1. GCACGGAGUGUAGGAUAUUAGUGCGAUUAGCACUGAGAAGGACAUGAGGAUCACCCAUGUGCUACCUCAAUUAGCCUUCCGUGC [Eli exng1 - 035] (Eterna round: R96, puzzle: Exclusion NG 1)
2. CUGAACUGAGGAUAUACAUGAGGAUCACCCAUGUGAUGUAGUGCACGCGUACGUGUACGUAGAAGGCAGUUCAG [Mat - Exclusion 3 - Eli Mod - D42] (Eterna round: R97, puzzle: Exclusion 3)

21.8
56.1
